Origin of measurements: PubChem BioAssay (NCI)

Tested on: A549/ATCC NSCLC
Assay: NCI-60 one-dose screen, 48 h
Details: 10 µM unless noted
The panel holds about 83,000 compounds, 20% with a hit somewhere; the sample as a whole holds those more often. The source made the active and inactive calls. Rule for the calls: active = growth percent below 10; inactive = the rest.
Outcome (select one): active, inactive

molecule	class.label
NC(=Nc1ccccc1)SCCCSC(N)=Nc1ccccc1	inactive
O=c1c2sc3ccccc3c2nnn1-c1ccc(F)c(Cl)c1	inactive
CC(C)N1CCN(c2ccncc2S(=O)(=O)N2CCN(C)CC2)CC1	inactive

What did the test return for Nc1cc2nc3ccccc3oc-2cc1=O ?
active

What did the test return for Nc1nc2ccc([C@@H]3Nc4ccc5[nH]ncc5c4[C@H]4[C@H]5CCC(C5)[C@H]43)cc2s1 ?
inactive

What did the test return for CC[C@H](Nc1nc(N)nc(C2CC2)c1C#N)c1nc2cccc(NCc3ccc(C(=O)NO)cc3)c2c(=O)n1-c1ccccc1 ?
active

What did the test return for C#CC[C@@H]1C[C@]2(C)[C@H]3CC[C@@H]4[C@H]5C(C(=C)C)CC[C@]5(C(=O)NCCCCN)CC[C@@]4(C)[C@]3(C)CC[C@H]2C(C)(C)[C@H]1OC(C)=O (some centres undefined) ?
active

What did the test return for Cc1ccc(Nc2nc(NCCO)c3ccccc3n2)cc1C ?
inactive

What did the test return for COc1ccc(/C=c2\c(=O)n(-c3ccccc3)c3nn4c(=O)c(=O)[nH]nc4n23)cc1 ?
inactive
